target: human CB1 (Homo sapiens, UniProt P21554); experiment: competitive radioligand binding assay, displacement of [3H]CP55,940, HEK cell membranes; parameters: expressed in transfected cells; host or cells: HEK293 cells, P2 membrane preparation; details: hCB1 Ki, [3H]CP55,940 1 nM, value in brackets after pKi
Sequence (P21554 whole entry): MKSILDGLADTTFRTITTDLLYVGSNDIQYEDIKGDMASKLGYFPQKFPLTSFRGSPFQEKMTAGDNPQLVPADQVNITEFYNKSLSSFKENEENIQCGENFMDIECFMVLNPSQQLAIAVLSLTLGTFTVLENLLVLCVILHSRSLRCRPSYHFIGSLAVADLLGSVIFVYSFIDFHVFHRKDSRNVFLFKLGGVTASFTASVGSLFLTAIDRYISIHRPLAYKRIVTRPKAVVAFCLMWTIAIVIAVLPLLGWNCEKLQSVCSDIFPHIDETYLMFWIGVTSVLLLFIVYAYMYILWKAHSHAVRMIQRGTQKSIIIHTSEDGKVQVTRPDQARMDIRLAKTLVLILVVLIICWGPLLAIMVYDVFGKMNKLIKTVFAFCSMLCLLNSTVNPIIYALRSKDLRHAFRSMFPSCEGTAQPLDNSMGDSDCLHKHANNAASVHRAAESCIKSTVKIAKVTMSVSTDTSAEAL
Please assign false (0) whenever Ki is at or above 300 nM, and true (1) whenever it is below.

Please review the following examples before continuing.
COC(=O)[C@H](Cc1ccccc1)NC(=O)c1cn(CCCCC#N)c2ncccc12 [Compound 24] :: false (0)
COC(=O)[C@@H](NC(=O)c1cn(CCCCC#N)c2ccccc12)C(C)(C)C [Compound 18] :: true (1)
CC(C)(C)[C@H](NC(=O)c1cn(CCCCC#N)c2ccccc12)C(N)=O [Compound 9] :: true (1)

Input COC(=O)[C@H](Cc1ccccc1)NC(=O)c1cn(CCCCF)c2ccccc12 [Compound 35] ; condition: Ki strictly below 300 nM. Does it hold?
true (1)

Check if Ki falls below 300 nM for N#CCCCCn1cc(C(=O)N[C@@H](Cc2ccccc2)C(N)=O)c2ccccc21 [Compound 10] .
false (0)

Would you kindly verify if Ki of COC(=O)[C@H](Cc1ccccc1)NC(=O)c1nn(CCCCC#N)c2ccccc12 [Compound 21] is strictly less than 300 nM?
true (1)

Does the reported Ki of the following compound sit strictly below 300 nM? COC(=O)[C@@H](NC(=O)c1cn(CCCCF)c2ncccc12)C(C)C [Compound 38]
true (1)

Dear colleague, could you confirm whether Ki of NC(=O)[C@H](Cc1ccccc1)NC(=O)c1nn(CCCCF)c2ccccc12 [Compound 30] falls below 300 nM? Thanks.
false (0)

Value source: paper PMC9558907
